- systemTested: Adenosine receptor A1 (Rattus norvegicus)
- Sequence (P25099 whole entry): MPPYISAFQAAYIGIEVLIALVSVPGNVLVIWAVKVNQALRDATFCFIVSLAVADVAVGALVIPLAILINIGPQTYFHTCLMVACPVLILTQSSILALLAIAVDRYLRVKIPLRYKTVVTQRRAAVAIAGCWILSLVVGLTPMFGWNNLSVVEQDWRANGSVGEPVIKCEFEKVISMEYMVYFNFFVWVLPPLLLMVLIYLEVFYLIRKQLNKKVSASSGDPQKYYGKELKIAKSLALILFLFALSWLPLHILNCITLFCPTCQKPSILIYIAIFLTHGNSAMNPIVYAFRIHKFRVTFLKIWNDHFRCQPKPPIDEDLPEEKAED
- assayRemarks: Displacement of [3H]DPCPX (with GTP) from Adenosine A1 receptor of rat cortical membrane
observable: Ki (nM)

compound: CCNc1nc2c(NC3CCCC3)ncnc2n1[C@@H]1O[C@H](CO)[C@@H](O)[C@H]1O
measValue: 1330

1. CCNc1nc2c(N)ncnc2n1C1O[C@H](CO)[C@@H](O)[C@H]1O (stereo partly drawn)
2. OC[C@H]1O[C@@H](n2c(NC3CCCC3)nc3c(NC4CCCC4)ncnc32)[C@H](O)[C@@H]1O
Prompt: Lab note: check whether 1 or 2 has the lower measured Ki. State your choice using its label.
Completion: 2
(2: 1280 nM, 1: 23800 nM)

Source listed as ChEMBL document CHEMBL1129060.
